Source: patent US9221822B2

Reported values of IC50 for individual entries
- Tested on: Human peripheral blood mononuclear cells (PBMCs) as Responder cells, RPMI 1788 Stimulator cells
- procedure_details: Mixed Lymphocyte Reaction (MLR) test
- Format: cell-based
- details: Homo sapiens, RPMI-1788, lowest concentration giving 50% inhibition of the MLR; 6 days coculture, 3H-thymidine incorporation
- Procedure: Human peripheral blood mononuclear cells (PBMCs) were isolated from buffy coats, obtained from healthy blood donors by Ficoll (Lymphoprep, Axis-Shield PoC AS, Oslo, Norway) density-gradient centrifugation. The cells at the Ficoll-plasma interface were washed three times and used as “Responder” cells. […] After 5 days, cells were pulsed with 1 μCi of methyl-^3H thymidine (MP Biomedicals, USA), harvested 18 h later on glass filter paper and counted. […]
Express your answer in µM, writing the number without its unit.

// worked examples, IC50 included
compound="Cc1cccc(OCC(=O)N2CCN(c3nc(N)nc4sc(-c5ccccc5)cc34)CC2)c1 [Example 371]" value_unit=µM recorded_result=0.21
compound="Cc1cccc(NC(=O)N2CCN(c3nc(N)nc4sc(-c5ccc(F)cc5)nc34)CC2)c1 [Example 43]" value_unit=µM recorded_result=0.3

INPUT: Requested read-out: IC50. Entry: Nc1nc(N2CCN(C(=O)COc3ccc(Cl)cc3)CC2)c2nc(Cc3ccc(F)cc3)sc2n1 [Example 46]
OUTPUT: 0.7

INPUT: Requested read-out: IC50. Entry: Nc1nc(N2CCN(C(=O)Cc3ccc(Cl)cc3)CC2)c2nc(CCc3ccc(F)cc3)sc2n1 [Example 132]
OUTPUT: 0.44

* * *

- System: Human peripheral blood mononuclear cells (PBMCs) as Responder cells, RPMI 1788 Stimulator cells
- procedure_details: Mixed Lymphocyte Reaction (MLR) test
- Type: cell-based
- details: Homo sapiens, RPMI-1788, lowest concentration giving 50% inhibition of the MLR; 6 days coculture, 3H-thymidine incorporation
Reported values of IC50 for individual entries
Express your answer in nM, writing the number without its unit.

molecule="COc1ccc(OCC(=O)N2CCN(c3nc(N)nc4sc(-c5ccccc5)nc34)CC2)cc1 [Example 208]" recorded_result=42
molecule="Nc1nc(N2CCN(C(=O)Cc3cccs3)CC2)c2nc(-c3ccc(F)cc3)[nH]c2n1 [Example 403]" recorded_result=7080

// below: IC50 requested for another molecule
INPUT: Requested read-out: IC50. Entry: Nc1nc(N2CCN(C(=O)COc3ccc(Cl)cc3)CC2)c2nc(-c3ccc(F)cc3)oc2n1 [Example 169]
OUTPUT: 3000

* * *

- System: Human peripheral blood mononuclear cells (PBMCs) as Responder cells, RPMI 1788 Stimulator cells
- procedure_details: Mixed Lymphocyte Reaction (MLR) test
- Type: cell-based
- details: Homo sapiens, RPMI-1788, lowest concentration giving 50% inhibition of the MLR; 6 days coculture, 3H-thymidine incorporation
I'd appreciate it if you marked entries Fulfilled when IC50 is lower than 400 nM and Not fulfilled when it is not.

Worked cases, answers included:
molecule=COc1ccc(OCC(=O)N2CCN(c3nc(N)nc4sc(-c5ccccc5)cc34)CC2)cc1 label_class=Fulfilled
molecule=Cc1cccc(NC(=O)N2CCN(c3nc(N)nc4sc(-c5ccccc5)nc34)CC2)c1 label_class=Fulfilled
molecule="Nc1nc(NC2CCCN(C(=O)OCc3ccccc3)C2)c2nc(CCc3ccc(F)cc3)sc2n1 (stereo not shown)" label_class="Not fulfilled"
molecule=NC(=O)c1nc(N2CCN(C(=O)COc3ccc(Cl)cc3)CC2)c2cc(-c3ccc(F)cc3)sc2n1 label_class="Not fulfilled"
molecule=Nc1nc(N2CCN(CC(=O)Nc3ccccn3)CC2)c2nc(-c3ccc(F)cc3)[nH]c2n1 label_class="Not fulfilled"

INPUT: Hi there! Is IC50 for `Nc1nc(N2CCN(C(=O)CCc3ccccc3)CC2)c2nc(-c3ccc(F)cc3)[nH]c2n1` below 400 nM, do you know?
OUTPUT: Not fulfilled

INPUT: Hi there! Is IC50 for `COc1ccc(OCC(=O)N2CCN(c3nc(N)nc4sc(CCCCc5ccc(F)cc5)nc34)CC2)cc1` below 400 nM, do you know?
OUTPUT: Not fulfilled

INPUT: Hi there! Is IC50 for `Nc1nc(N2CCN(C(=O)COc3ccc(Cl)cc3)CC2)c2nc(SCCc3ccccc3)[nH]c2n1` below 400 nM, do you know?
OUTPUT: Not fulfilled

INPUT: Hi there! Is IC50 for `O=C(COc1ccc(Cl)cc1)N1CCN(c2nc(-c3ccccc3)nc3sc(-c4ccc(F)cc4)cc23)CC1` below 400 nM, do you know?
OUTPUT: Not fulfilled

INPUT: Hi there! Is IC50 for `CN(C(=O)CN1CCN(c2nc(N)nc3[nH]c(-c4ccc(F)cc4)nc23)CC1)c1ccccc1` below 400 nM, do you know?
OUTPUT: Not fulfilled

INPUT: Hi there! Is IC50 for `CCCCCN1CCN(c2nc(N)nc3sc(-c4ccc(F)cc4)nc23)CC1` below 400 nM, do you know?
OUTPUT: Not fulfilled

INPUT: Hi there! Is IC50 for `Cc1nc2c(N3CCN(C(=O)COc4ccc(Cl)cc4)CC3)nc(N)nc2[nH]1` below 400 nM, do you know?
OUTPUT: Not fulfilled

* * *

- System: Human peripheral blood mononuclear cells (PBMCs) as Responder cells, RPMI 1788 Stimulator cells
- procedure_details: Mixed Lymphocyte Reaction (MLR) test
- Assay type: cell-based
- details: Homo sapiens, RPMI-1788, lowest concentration giving 50% inhibition of the MLR; 6 days coculture, 3H-thymidine incorporation
reported_metric: IC50 (nM)
Express your answer in nM, writing the number without its unit.

// worked examples, IC50 included
test_smiles=COc1ccc(OCC(=O)N2CCN(c3nc(N)nc4sc(-c5cccnc5)nc34)CC2)cc1 recorded_result=12
test_smiles=COc1ccc(OCC(=O)N2CCN(c3nc(N)nc4sc(-c5ccc(C)cc5)nc34)CC2)cc1 recorded_result=750
test_smiles=O=C(COc1ccc(Cl)cc1)N1CCN(c2ncnc3sc(-c4ccc(F)cc4)cc23)CC1 recorded_result=6350
test_smiles=Nc1nc(N2CCN(CCOc3ccccc3)CC2)c2cc(-c3ccccc3)sc2n1 recorded_result=9640
test_smiles=Nc1nc(N2CCN(C(=O)COc3ccccc3)CC2)c2nc(-c3ccc(F)cc3)sc2n1 recorded_result=350

// below: IC50 requested for another compound
INPUT: Requested read-out: IC50. Entry: `Nc1nc(N2CCN(C(=O)COc3ccc(Cl)cc3)CC2)c2nc(C3CC3)sc2n1`
OUTPUT: 600

* * *

- System: Human peripheral blood mononuclear cells (PBMCs) as Responder cells, RPMI 1788 Stimulator cells
- procedure_details: Mixed Lymphocyte Reaction (MLR) test
- Type: cell-based
- details: Homo sapiens, RPMI-1788, lowest concentration giving 50% inhibition of the MLR; 6 days coculture, 3H-thymidine incorporation
I'd appreciate it if you marked entries label 1 when IC50 is lower than 0.7 µM and label 0 when it is not.

Worked cases, answers included:
molecule="Nc1nc(N2CCN(C(=O)CCc3ccccc3)CC2)c2cc(-c3ccc(F)cc3)sc2n1 [Example 343]" label_class="label 0"
molecule="COc1cccc(CCc2nc3c(N4CCN(C(=O)COc5ccc(Br)cc5)CC4)nc(N)nc3s2)c1 [Example 254]" label_class="label 0"
molecule="Nc1nc(N2CCN(C(=O)COc3ccccc3)CC2)c2cc(-c3ccccc3)sc2n1 [Example 332]" label_class="label 0"
molecule="Nc1nc(N2CCN(C(=O)COc3ccc(Cl)cc3)CC2)c2ccsc2n1 [Example 351]" label_class="label 0"
molecule="Nc1nc(N2CCN(C(=O)COc3ccccc3)CC2)c2nc(CCc3ccc(F)cc3)sc2n1 [Example 134]" label_class="label 0"
molecule="Nc1nc(N2CCN(C(=O)COc3ccc(Cl)cc3)CC2)c2nc(-c3ccncc3)sc2n1 [Example 281]" label_class="label 1"
molecule="COCCN1CCN(c2nc(N)nc3oc(-c4ccc(F)cc4)nc23)CC1 [Example 192]" label_class="label 0"
molecule="Nc1nc(N2CCN(C(=O)OCc3ccccc3)CC2)c2nc(-c3ccc(F)cc3)sc2n1 [Example 40]" label_class="label 0"
molecule="COc1ccc(OCC(=O)N2CCN(c3nc(N)nc4sc(Cc5ccc(F)cc5)nc34)CC2)cc1 [Example 230]" label_class="label 1"
molecule="N#Cc1ccc(NC(=O)N2CCN(c3nc(N)nc4sc(-c5cccnc5)nc34)CC2)cc1 [Example 279]" label_class="label 1"

INPUT: Hi there! Is IC50 for O=C(COc1ccc(Cl)cc1)N1CCN(c2ncnc3sc(-c4ccc(F)cc4)nc23)CC1 [Example 301] below 0.7 µM, do you know?
OUTPUT: label 1

INPUT: Hi there! Is IC50 for Cc1cccc(NC(=O)N2CCN(c3nc(N)nc4sc(CCc5cccs5)nc34)CC2)c1 [Example 157] below 0.7 µM, do you know?
OUTPUT: label 1

INPUT: Hi there! Is IC50 for Nc1nc(N2CCN(C(=O)Nc3ccc(F)cc3F)CC2)c2nc(-c3ccc(F)cc3)sc2n1 [Example 217] below 0.7 µM, do you know?
OUTPUT: label 1

INPUT: Hi there! Is IC50 for Nc1nc(N2CCN(S(=O)(=O)Cc3ccccc3)CC2)c2cc(-c3ccc(F)cc3)sc2n1 [Example 344] below 0.7 µM, do you know?
OUTPUT: label 0

INPUT: Hi there! Is IC50 for Nc1nc(N2CCN(C(=O)COc3ccc(Cl)cc3Cl)CC2)c2nc(-c3ccc(F)cc3)sc2n1 [Example 212] below 0.7 µM, do you know?
OUTPUT: label 1

INPUT: Hi there! Is IC50 for Nc1nc(N2CCN(C(=O)COc3ccc(Br)cc3)CC2)c2nc(CCc3ccc(F)cc3)sc2n1 [Example 52] below 0.7 µM, do you know?
OUTPUT: label 0

INPUT: Hi there! Is IC50 for Nc1nc(N2CC[C@@H](NC(=O)c3ccc(Cl)cc3)C2)c2nc(CCc3ccc(F)cc3)sc2n1 [Example 144] below 0.7 µM, do you know?
OUTPUT: label 0

INPUT: Hi there! Is IC50 for CCOc1nc(N)nc2sc(Cc3ccc(F)cc3)nc12 [Example 31] below 0.7 µM, do you know?
OUTPUT: label 0
